Reported values of Ka for individual entries
# target-or-system: T1, recombinant human IL-23R/Fc chimera (R&D Systems) (human, UniProt Q5VWK5 24-355)
# T1 construct: Bought; also called rhIL23RFc
# T1 sequence (looked up): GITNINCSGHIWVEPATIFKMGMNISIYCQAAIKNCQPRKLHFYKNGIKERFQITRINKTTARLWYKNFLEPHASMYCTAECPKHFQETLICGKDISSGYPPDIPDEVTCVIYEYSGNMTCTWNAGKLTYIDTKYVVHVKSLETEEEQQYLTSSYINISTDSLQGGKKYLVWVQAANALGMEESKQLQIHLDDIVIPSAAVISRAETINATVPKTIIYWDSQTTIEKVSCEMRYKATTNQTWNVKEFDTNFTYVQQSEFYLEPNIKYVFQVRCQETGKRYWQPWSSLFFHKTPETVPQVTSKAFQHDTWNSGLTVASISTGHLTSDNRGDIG
# method-notes: SPR
// return numeric value only (unit: M⁻¹, not printed)

{"columns": ["binder", "unit-of-measurement", "numeric-value"],
 "data": [
  ["001-69.4D4 monomeric CTLD (designed binder, C-terminal tag not specified) ALQTVCLKGTKVHMKCFLAFTQTKTFHEASEDCISRGGTLSTPQTGSENDALYEYLRQSVGNEAEIWLGLNGSVRGRTWVDMTGARIAYKNWETEITAQPDGGIGVWGENCAVLSGAANGKWFDKRCRDQLPYICQFGIV", "M⁻¹", "6.76e+06"]
]}

Consider the additional binder presented here.
Data request, read-out Ka, for 001-69.4G8 ATRIMER complex (designed binder, not shown: C-terminal tag: His/Myc (pANA4) or HA-StrepII (pANA10)) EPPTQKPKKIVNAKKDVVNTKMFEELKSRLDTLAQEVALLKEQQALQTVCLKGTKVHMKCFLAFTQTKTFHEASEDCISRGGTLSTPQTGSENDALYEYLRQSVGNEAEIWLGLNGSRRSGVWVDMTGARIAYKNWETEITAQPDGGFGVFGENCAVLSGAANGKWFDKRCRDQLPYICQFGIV
1.35e+08
